Tested on: EKVX NSCLC
EXPERIMENTAL PROTOCOL: NCI-60 one-dose screen, 48 h
TEST CONDITIONS: 10 µM unless noted
This is part of a sample that, as a whole, favours compounds with a hit. Of some 83,000 tested, about 20% had one in any assay. Active and inactive are the calls of the source. How the source made its calls: active means growth percent below 10; inactive means the rest.
Choose one outcome from this list and give only that: active, inactive

# COMPOUND, ASSAY SYSTEM, ASSIGNED CATEGORY
measured = [
    ("COc1ccc(/C=C/C(=O)c2ccc(S(=O)(=O)NCCNc3nc(N(C)C)nc(N4CCOCC4)n3)cc2)cc1", "EKVX NSCLC", "inactive"),
]

Ask: Short answer needed: outcome of this test for COc1cc(C2CC(c3ccc(S(=O)(=O)NCCNc4nc(N(C)C)nc(N5CCOCC5)n4)cc3)=Nc3c(N)nc(N)nc3N2)cc(OC)c1OC (centres undefined) ?
Reply: inactive

Ask: Short answer needed: outcome of this test for CCCCCCCCc1ccc(C(=O)Nc2ccc(C)c(OP(=O)(O)O)c2)cc1 ?
Reply: inactive

Ask: Short answer needed: outcome of this test for Cc1ccc2c(c1)nc(-c1ccccc1)n2CC(=O)N=Nc1c(O)[nH]c2ccc(Cl)cc12 ?
Reply: active
